All figures here come from patent US8367658B2.

Property: IC50; scope: individual molecules
- System: CHK1 (Homo sapiens, UniProt O14757)
- Sequence (O14757 whole entry, species assumed): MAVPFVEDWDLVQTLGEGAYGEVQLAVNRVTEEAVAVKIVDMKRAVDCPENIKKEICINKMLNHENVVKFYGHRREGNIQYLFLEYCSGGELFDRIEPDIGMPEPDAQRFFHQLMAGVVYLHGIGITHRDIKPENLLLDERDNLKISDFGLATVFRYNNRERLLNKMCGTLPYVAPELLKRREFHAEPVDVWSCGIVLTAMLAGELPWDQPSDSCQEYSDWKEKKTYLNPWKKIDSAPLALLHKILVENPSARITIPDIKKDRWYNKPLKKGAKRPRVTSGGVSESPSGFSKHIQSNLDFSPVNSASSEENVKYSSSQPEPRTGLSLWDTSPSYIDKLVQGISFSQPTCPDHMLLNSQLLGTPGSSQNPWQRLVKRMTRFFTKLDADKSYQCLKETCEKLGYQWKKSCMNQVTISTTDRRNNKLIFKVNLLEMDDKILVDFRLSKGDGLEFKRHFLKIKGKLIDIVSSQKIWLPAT
- Protocol text: CHK1 kinase function inhibition assay (DELFIA, phosphorylation of a CDC25C peptide)
- Assay type: biochemical
- Details: CHK1 1 nM, ATP 30 μM, 30 minutes at room temperature
Reported endpoint: IC50

Molecule: COCC#Cc1cnc(Nc2cnc(C#N)cn2)cc1NC[C@@H]1CNCCO1 [Compound Y-154]
Reported endpoint: IC50
Measured: ≤ 100 nM
//
Molecule: N#Cc1cnc(Nc2cc(NCCC(N)c3ccccc3)c(N)cn2)cn1 (centres unmarked) [Compound Y-050]
Reported endpoint: IC50
Measured: 1000 to 10000 nM
//
Molecule: N#Cc1cnc(Nc2cc(NCC3CCCNC3)c(-n3ccc(C(=O)NCCO)c3)cn2)cn1 (centres unmarked) [Compound Y-066]
Reported endpoint: IC50
Measured: 100 to 1000 nM
//
Molecule: N#Cc1cnc(Nc2cc(OCC3CCOCC3)c(NC(=O)CCC3CCNCC3)cn2)cn1 [Compound Y-069]
Reported endpoint: IC50
Measured: 1000 to 10000 nM
//
Molecule: CN1CCC(Nc2cc(Nc3cnc(C#N)cn3)ncc2[N+](=O)[O-])CC1 [Compound Y-040]
Reported endpoint: IC50
Measured: ≤ 100 nM
//
Molecule: COC(=O)c1cnc(Nc2cnc(C#N)cn2)cc1NCC1CCCCN1 (centres unmarked) [Compound Y-073]
Reported endpoint: IC50
Measured: ≤ 100 nM
//
Molecule: COC(=O)c1cnc(Nc2cnc(C#N)cn2)cc1NC1CC2CCC(C1)N2Cc1ccccn1 (centres unmarked) [Compound Y-080]
Reported endpoint: IC50
Measured: ≤ 100 nM
//
Molecule: N#Cc1cnc(Nc2cc(NCC3CNCCO3)c(C(=O)Nc3ccccc3)cn2)cn1 (centres unmarked) [Compound Y-102]
Reported endpoint: IC50
Measured: ≤ 100 nM
